Target: mouse Tas2r105 (Mus musculus, UniProt Q9JKT4)
Construct: expressed in transfected cells; host or cells: HEK293T-Gα16gust44
Sequence (Q9JKT4 1-300): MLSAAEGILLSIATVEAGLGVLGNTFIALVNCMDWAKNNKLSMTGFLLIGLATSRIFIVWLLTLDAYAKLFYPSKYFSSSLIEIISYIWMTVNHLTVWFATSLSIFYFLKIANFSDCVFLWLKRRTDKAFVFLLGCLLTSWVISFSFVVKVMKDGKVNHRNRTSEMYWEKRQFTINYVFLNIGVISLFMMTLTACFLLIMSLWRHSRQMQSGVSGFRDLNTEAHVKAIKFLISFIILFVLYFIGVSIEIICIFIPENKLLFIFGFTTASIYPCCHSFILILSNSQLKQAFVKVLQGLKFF
Experiment: Calcium imaging assay (FLIPR), HEK293T-Gα16gust44 cells transfected with mouse Tas2r105
Type: cell-based
Details: Time 112.781 s
experimental_endpoint: RLU

Known RLU results, listed for orientation:
compound | tested_target | RLU
C[C@H](CCC(=O)O)[C@H]1CC[C@H]2[C@@H]3CC[C@@H]4C[C@H](O)CC[C@]4(C)[C@H]3C[C@H](O)[C@]12C [Deoxycholic Acid, deoxycholic acid] | mouse Tas2r105 (Mus musculus, UniProt Q9JKT4) | 118.273 RLU
C[C@H](CCC(=O)O)[C@H]1CC[C@H]2[C@@H]3[C@H](O)C[C@@H]4C[C@H](O)CC[C@]4(C)[C@H]3C[C@H](O)[C@]12C [Cholic Acid, cholic acid] | mouse Tas2r105 (Mus musculus, UniProt Q9JKT4) | 544.652 RLU
C[C@H](CCC(=O)NCC(=O)O)[C@H]1CC[C@H]2[C@@H]3[C@H](O)C[C@@H]4C[C@H](O)CC[C@]4(C)[C@H]3C[C@H](O)[C@]12C [Glycocholic Acid, glycocholic acid] | mouse Tas2r105 (Mus musculus, UniProt Q9JKT4) | 501.6 RLU

Attention now shifts to the item below.
Q) Provide only the value of recorded RLU for C[C@H](CCC(=O)O)[C@H]1CC[C@H]2[C@@H]3CC[C@@H]4C[C@H](O)CC[C@]4(C)[C@H]3CC[C@]12C [Lithocholic Acid, lithocholic acid]
A) 241.216 RLU

----------
Target: human TAS2R1 (Homo sapiens, UniProt Q9NYW7)
Construct: expressed in transfected cells; host or cells: HEK293T-Gα16gust44
Sequence (Q9NYW7 1-299): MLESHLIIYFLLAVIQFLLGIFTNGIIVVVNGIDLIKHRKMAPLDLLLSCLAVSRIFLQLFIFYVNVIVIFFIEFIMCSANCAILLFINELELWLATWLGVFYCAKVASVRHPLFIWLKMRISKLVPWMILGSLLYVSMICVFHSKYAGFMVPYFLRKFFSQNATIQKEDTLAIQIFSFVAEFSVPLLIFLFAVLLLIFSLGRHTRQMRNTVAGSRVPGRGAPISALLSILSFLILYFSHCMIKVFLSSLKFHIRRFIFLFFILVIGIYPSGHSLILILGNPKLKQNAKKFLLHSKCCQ
Experiment: Calcium imaging assay (FLIPR), HEK293T-Gα16gust44 cells transfected with human TAS2R1
Format: cell-based
Conditions: Time 197.547 s
experimental_endpoint: RLU (RLU)
Report the figure in RLU without appending any unit label.

smiles_structure | unit_annotation | RLU
C[C@H](CCC(=O)NCCS(=O)(=O)O)[C@H]1CC[C@H]2[C@@H]3CC[C@@H]4C[C@H](O)CC[C@]4(C)[C@H]3CC[C@]12C | RLU | 1.672
C[C@H](CCC(=O)O)[C@H]1CC[C@H]2[C@@H]3CC[C@@H]4C[C@H](O)CC[C@]4(C)[C@H]3C[C@H](O)[C@]12C | RLU | 220.468
C[C@H](CCC(=O)NCCS(=O)(=O)O)[C@H]1CC[C@H]2[C@@H]3[C@H](O)C[C@@H]4C[C@H](O)CC[C@]4(C)[C@H]3C[C@H](O)[C@]12C | RLU | 46.3148

Moving on to another molecule below.
Q) Provide one value: measured RLU of C[C@H](CCC(=O)NCC(=O)O)[C@H]1CC[C@H]2[C@@H]3[C@H](O)C[C@@H]4C[C@H](O)CC[C@]4(C)[C@H]3C[C@H](O)[C@]12C
A) 167.876

----------
Molecular target: human TAS2R1 (Homo sapiens, UniProt Q9NYW7)
Construct: expressed in transfected cells; host or cells: HEK293T-Gα16gust44
Assay: Calcium imaging assay (FLIPR), HEK293T-Gα16gust44 cells transfected with human TAS2R1
Assay type: cell-based
Details: Time 116.796 s
experimental_endpoint: RLU (RLU)
Your answer should be a plain number; it is taken to be in RLU.

smiles_structure | tested_target | result
C[C@H](CCC(=O)O)[C@H]1CC[C@H]2[C@@H]3CC[C@@H]4C[C@H](O)CC[C@]4(C)[C@H]3CC[C@]12C | human TAS2R1 (Homo sapiens, UniProt Q9NYW7) | 868.556
C[C@H](CCC(=O)O)[C@H]1CC[C@H]2[C@@H]3[C@H](O)C[C@@H]4C[C@H](O)CC[C@]4(C)[C@H]3CC[C@]12C | human TAS2R1 (Homo sapiens, UniProt Q9NYW7) | 609.573
C[C@H](CCC(=O)O)[C@H]1CC[C@H]2[C@@H]3[C@H](O)C[C@@H]4C[C@H](O)CC[C@]4(C)[C@H]3C[C@H](O)[C@]12C | human TAS2R1 (Homo sapiens, UniProt Q9NYW7) | 515.676

Q) Identify measured RLU corresponding to C[C@H](CCC(=O)O)[C@H]1CC[C@H]2[C@@H]3[C@@H](O)C[C@@H]4C[C@H](O)CC[C@]4(C)[C@H]3CC[C@]12C
A) 332.202

----------
Measured RLU, fluorescence trace, listed per entry.
Molecular target: human TAS2R4 (Homo sapiens, UniProt Q9NYW5)
Construct: expressed in transfected cells; host or cells: HEK293T-Gα16gust44
Sequence (Q9NYW5 whole entry): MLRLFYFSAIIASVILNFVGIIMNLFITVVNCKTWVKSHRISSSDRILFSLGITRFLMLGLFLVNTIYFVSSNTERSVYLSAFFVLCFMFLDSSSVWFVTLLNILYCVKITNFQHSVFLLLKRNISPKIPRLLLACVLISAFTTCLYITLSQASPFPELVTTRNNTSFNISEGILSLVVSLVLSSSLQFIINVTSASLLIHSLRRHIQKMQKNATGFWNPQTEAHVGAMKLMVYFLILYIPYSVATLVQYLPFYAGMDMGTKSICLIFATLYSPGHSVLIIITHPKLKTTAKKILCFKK
Test: Calcium imaging assay (FLIPR), HEK293T-Gα16gust44 cells transfected with human TAS2R4; further: test concentration or dose not given here
Assay type: cell-based
Settings: Time (s) 40.781 (TCA, TLCA: 40.782)
Report as a plain number; the unit RLU is understood.

Consider the reported RLU, fluorescence trace for these compounds:
smiles_structure | result
C[C@H](CCC(=O)NCCS(=O)(=O)O)[C@H]1CC[C@H]2[C@@H]3[C@H](O)C[C@@H]4C[C@H](O)CC[C@]4(C)[C@H]3C[C@H](O)[C@]12C | 404.135
C[C@H](CCC(=O)O)[C@H]1CC[C@H]2[C@@H]3[C@H](O)C[C@@H]4C[C@H](O)CC[C@]4(C)[C@H]3C[C@H](O)[C@]12C | 484.385
C[C@H](CCC(=O)O)[C@H]1CC[C@H]2[C@@H]3[C@@H](O)C[C@@H]4C[C@H](O)CC[C@]4(C)[C@H]3CC[C@]12C | 327.594
C[C@H](CCC(=O)O)[C@H]1CC[C@H]2[C@@H]3CC[C@@H]4C[C@H](O)CC[C@]4(C)[C@H]3C[C@H](O)[C@]12C | 245.601
C[C@H](CCC(=O)NCC(=O)O)[C@H]1CC[C@H]2[C@@H]3[C@H](O)C[C@@H]4C[C@H](O)CC[C@]4(C)[C@H]3C[C@H](O)[C@]12C | 780.753

Read the next record carefully.
Q) Report value only: RLU, fluorescence trace, human TAS2R4 (Homo sapiens, UniProt Q9NYW5), C[C@H](CCC(=O)NCCS(=O)(=O)O)[C@H]1CC[C@H]2[C@@H]3CC[C@@H]4C[C@H](O)CC[C@]4(C)[C@H]3CC[C@]12C
A) 175

----------
Target: human TAS2R1 (Homo sapiens)
Construct: expressed in transfected cells; host or cells: HEK293T-Gα16gust44
Assay: Calcium imaging assay (FLIPR), HEK293T-Gα16gust44 cells transfected with human TAS2R1
Format: cell-based
Details: Time 88.781 s
Collected RLU values appear next to each entry.
The response must be a number in RLU with no trailing unit.

Examples with answers:
smiles_structure | RLU, RLU
C[C@H](CCC(=O)O)[C@H]1CC[C@H]2[C@@H]3CC[C@@H]4C[C@H](O)CC[C@]4(C)[C@H]3C[C@H](O)[C@]12C | 406.471
C[C@H](CCC(=O)NCCS(=O)(=O)O)[C@H]1CC[C@H]2[C@@H]3CC[C@@H]4C[C@H](O)CC[C@]4(C)[C@H]3CC[C@]12C | 708.528
C[C@H](CCC(=O)NCCS(=O)(=O)O)[C@H]1CC[C@H]2[C@@H]3[C@H](O)C[C@@H]4C[C@H](O)CC[C@]4(C)[C@H]3C[C@H](O)[C@]12C | 435.97

Then this compound:
Q) Give RLU only, for C[C@H](CCC(=O)NCC(=O)O)[C@H]1CC[C@H]2[C@@H]3[C@H](O)C[C@@H]4C[C@H](O)CC[C@]4(C)[C@H]3C[C@H](O)[C@]12C , using human TAS2R1 (Homo sapiens) data.
A) 587.481
